# target.or.system: TC-PTP (TCPTP1-317; TCPTP292 in FIG. 12) (Mus musculus, UniProt Q06180)
# Construct: His-tag; made in house; host or cells: E. coli BL21 (DE3), pET16b
# Sequence (Q06180 1-317): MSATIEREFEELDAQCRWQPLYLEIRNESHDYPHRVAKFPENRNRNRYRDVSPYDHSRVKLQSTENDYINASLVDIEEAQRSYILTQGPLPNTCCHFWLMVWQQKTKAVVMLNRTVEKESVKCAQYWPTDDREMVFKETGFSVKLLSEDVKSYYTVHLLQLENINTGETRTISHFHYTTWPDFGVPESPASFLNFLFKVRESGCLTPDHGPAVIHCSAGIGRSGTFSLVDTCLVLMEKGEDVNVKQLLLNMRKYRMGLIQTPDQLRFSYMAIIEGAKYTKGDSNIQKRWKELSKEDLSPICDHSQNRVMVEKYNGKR
# measurement.notes: TC-PTP-catalyzed hydrolysis of pNPP in the presence of terpenoids
# Assay type: biochemical, H. sapiens
# condition.label: TCPTP1-317; uncompetitive model of inhibition; read-out: Fit par. Ki, uncompetitive model
# Text: Enzyme kinetics. To examine terpenoid-mediated inhibition, we measured PTP-catalyzed hydrolysis of p-nitrophenyl phosphate (pNPP) or 4-methylumbelliferyl phosphate (4-MUP, used when KM for pNPP was large) in the presence of various concentrations of terpenoids. […] We used a custom MATLAB script to process all raw kinetic data. […] When this step reduced kinetic dataset to fewer than ten points, we re-measured those datasets to collect at least ten. […]
// reported Ki per item

> print(dat)
                                   compound  observed.measurement
1  C=C(C)[C@@H]1CC[C@@H](C)[C@@H]2CCC(C)=C[C@@H]21 [amorphadiene]                356 µM

Kindly consider the entry below.
Task: Entry CC(C)=CCC=C(C)C1CC=C(C)CC1 (stereo not drawn) [α-bisabolene] : reported Ki = ?
Result: 69.2 µM
